B1: glmS ribozyme (parent)
chain: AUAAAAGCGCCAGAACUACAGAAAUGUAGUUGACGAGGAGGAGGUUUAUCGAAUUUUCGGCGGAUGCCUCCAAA

Variants of: B1
Assay Summary: self-cleavage kobs at 40 uM GlcN6P; higher = faster cleavage; RNA array
Test Parameters: with glucosamine-6-phosphate
This sample holds only a part of the variants without activity.

>  <Mutation List>
G41A A48G

>  <self-cleavage kobs at 40 uM GlcN6P>
< 1e-05 s⁻¹

$$$$
>  <Mutation List>
A33U A36C C58G U69C

>  <self-cleavage kobs at 40 uM GlcN6P>
4.07e-05 s⁻¹

$$$$
>  <Mutation List>
U30G U56A

>  <self-cleavage kobs at 40 uM GlcN6P>
0.000125 s⁻¹

$$$$
>  <Mutation List>
C10A A33C A64C

>  <self-cleavage kobs at 40 uM GlcN6P>
< 1e-05 s⁻¹

$$$$
>  <Mutation List>
C16A G29U U31C

>  <self-cleavage kobs at 40 uM GlcN6P>
3.38e-05 s⁻¹

$$$$
>  <Mutation List>
G35U A48C

>  <self-cleavage kobs at 40 uM GlcN6P>
< 1e-05 s⁻¹

$$$$
>  <Mutation List>
G29U G63U

>  <self-cleavage kobs at 40 uM GlcN6P>
< 1e-05 s⁻¹

$$$$
>  <Mutation List>
G32U G35U

>  <self-cleavage kobs at 40 uM GlcN6P>
< 1e-05 s⁻¹

$$$$
>  <Mutation List>
A33U A36C G59C

>  <self-cleavage kobs at 40 uM GlcN6P>
< 1e-05 s⁻¹

$$$$
>  <Mutation List>
G37U G43U

>  <self-cleavage kobs at 40 uM GlcN6P>
< 1e-05 s⁻¹

$$$$
>  <Mutation List>
G32U A36G G59A

>  <self-cleavage kobs at 40 uM GlcN6P>
< 1e-05 s⁻¹

$$$$
